METHOD: Measuring pKas of couplers in TRITON X-100 media
Format: physicochemical
CONDITION INFO: Table 5; TRITON X-100 media; read-out: pKa
REPORTED METRIC: pKa

CCC(C)(C)c1cc(C(C)(C)CC)c2oc(/C(C#N)=C/c3ccc(N(C(=O)OC(C(=O)Nc4ccc([N+](=O)[O-])cc4Cl)C(=O)c4ccccc4)C4CCCC4)cc3C)nc2c1 (centres unmarked) [Coupler Y-5]	7.4
CCCCCCCCCCCCNS(=O)(=O)c1ccc(NC(=O)C(OC(=O)N(c2ccc(/C=C(\C#N)c3nc4cc(C(C)(C)C)ccc4o3)c(C)c2)C2CCCC2)C(=O)c2ccc(OC)cc2)c(Cl)c1 (centres unmarked) [CY-8, reference compound]	9.5
